The measurements presented in this section are drawn from the supplement of paper PMC12076712.

# study_target: UniProt P51955
# Sequence (whole entry): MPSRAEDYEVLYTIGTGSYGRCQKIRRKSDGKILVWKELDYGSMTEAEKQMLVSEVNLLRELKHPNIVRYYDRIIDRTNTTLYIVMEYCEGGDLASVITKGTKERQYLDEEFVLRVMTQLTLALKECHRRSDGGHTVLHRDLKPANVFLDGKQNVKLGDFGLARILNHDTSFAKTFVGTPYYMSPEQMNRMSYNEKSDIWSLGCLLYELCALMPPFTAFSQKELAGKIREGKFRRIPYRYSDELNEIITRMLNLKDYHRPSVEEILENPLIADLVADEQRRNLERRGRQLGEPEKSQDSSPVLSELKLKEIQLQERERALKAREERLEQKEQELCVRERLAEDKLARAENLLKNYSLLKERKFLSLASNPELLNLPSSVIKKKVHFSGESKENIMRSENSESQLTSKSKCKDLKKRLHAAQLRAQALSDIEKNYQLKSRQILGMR
# protocol_details: pIC50, kinobeads binding competition
# setup_conditions: cell material: Lysate mix
readout: pIC50

C#CCNC(=O)c1cc(Nc2cc(C)[nH]n2)nc(N2CCN(Cc3ccc(S(=O)(=O)F)cc3)CC2)n1 : 4.81
CCNC(=O)c1cc(Nc2cc(C)[nH]n2)nc(N2CCN(Cc3ccc(S(=O)(=O)F)cc3)CC2)n1 : 4.67
C#CCNC(=O)c1cc(Nc2cc(C3CC3)[nH]n2)nc(N2CCN(Cc3ccc(S(=O)(=O)F)cc3)CC2)n1 : 5.87
CCNC(=O)c1cc(Nc2cc(C3CC3)[nH]n2)nc(N2CCN(Cc3ccc(S(=O)(=O)F)cc3)CC2)n1 : 5.69
